System: T1, human VISTA protein (hVISTA-Fc, R&D Systems, Cat. No. 7126-B7) (human, UniProt Q9H7M9 33-194)
T1 construct: Bought recombinant protein; not shown: Fc part of the bought fusion protein
T1 sequence (looked up): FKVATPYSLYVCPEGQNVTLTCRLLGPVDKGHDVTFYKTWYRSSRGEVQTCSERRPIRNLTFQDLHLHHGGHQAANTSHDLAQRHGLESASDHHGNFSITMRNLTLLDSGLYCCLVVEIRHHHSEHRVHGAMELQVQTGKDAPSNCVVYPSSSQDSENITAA
Measurement notes: ELISA on coated hVISTA-Fc, antibody at 100 ng per well
Attribute measured: binding result

| Binder | Attribute measured | Readout value |
| --- | --- | --- |
| 4F2 full IgG1 antibody (antibody, V domains shown, scFv clone converted to full IgG1, made in CHO-S cells; also called anti-VISTA antibody) VH: EVQLLESGGGLVQPGGSLRLSCAASGFTFSDYYMHWVRQAPGKGLEWVSEIIPIFDTANYAQKFQDRFTISRDNSKNTLYLQMNSLRAEDTAVYYCARSTGDYFDYWGQGTLVTVSS VL: QSVLTQPPSASGTPGQRVTISCSGDKLGNKYTSWYQQLPGTAPKLLIYDNNKRPSGVPDRFSGSKSGTSASLAISGLRSEDEADYYCGTWDSSLSAYVFGGGTKLTVLR | binding result | binds |
| 4H2 full IgG1 antibody (antibody, V domains shown, scFv clone converted to full IgG1, made in CHO-S cells; also called anti-VISTA antibody) VH: EVQLLESGGGLVQPGGSLRLSCAASGFTFSTAWMSWVRQAPGKGLEWVSRVNPSDSHTDYSPSFQDRFTISRDNSKNTLYLQMNSLRAEDTAVYYCARVPPGYGFDIWGQGTLVTVSS VL: EIVLTQSPGTLSLSPGERATLSCQASQDITNYLNWYQQKPGQAPRLLIYDASNRATGIPDRFSGSGSGTDFTLTISRLEPEDFAVYYCQQSYSTPFTFGQGTKVEIKR | binding result | binds |
